Biological target: L-lactate dehydrogenase (Plasmodium falciparum (isolate CDC / Honduras)) (UniProt Q27743)
Sequence (Q27743 whole entry, looked up): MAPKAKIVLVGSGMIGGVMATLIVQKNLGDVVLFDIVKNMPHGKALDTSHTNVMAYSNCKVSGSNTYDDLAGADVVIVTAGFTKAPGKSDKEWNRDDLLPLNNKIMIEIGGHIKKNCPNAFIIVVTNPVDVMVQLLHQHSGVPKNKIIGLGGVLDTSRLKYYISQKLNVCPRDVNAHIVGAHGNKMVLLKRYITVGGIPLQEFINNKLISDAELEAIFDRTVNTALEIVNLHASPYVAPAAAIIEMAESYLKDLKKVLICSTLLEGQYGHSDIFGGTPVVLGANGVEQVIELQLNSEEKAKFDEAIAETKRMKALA
Test: PfLDH activity inhibition – cell lysate, 3D7 strain, counter-screen for P. falciparum growth inhibition project (AID 2304);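 note: 0% = vehicle and 100% = reference inhibitor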
Conditions: P. falciparum 3D7 crude extract, LDH APAD/NBT absorbance; at 2 µM; stronger effect = higher value
The source made the active and inactive calls. The rule behind the calls is not given here.

Compound: Cn1cncc1C(=O)Nc1cccc(-c2ccc(-c3nc4ccc(C(F)(F)F)cc4[nH]3)cc2)c1
inhibition: 1% (inactive)

Compound: CCc1ccc(NC(=O)c2cccc(CN3CCCN(Cc4ccc(OC)cc4)CC3)c2)cc1
inhibition: 5% (inactive)

Compound: CC1(C)N=C(N)N=C(N)N1OCCc1ccccc1
inhibition: 2% (inactive)

Compound: Cc1cccc(NC(=O)c2ccc(C(=O)NC3CCN(CC4CCCCC4)C3)cc2)c1 (stereo not given)
inhibition: -3% (inactive)

Compound: CCCN1CCN(CCCNc2c3ccccc3nc3ccccc23)CC1
inhibition: -7% (inactive)

Compound: Cn1cnc(CCNC(=O)c2ccc(-c3ccc(-c4nc5ccc(F)cc5[nH]4)cc3)cc2)c1
inhibition: 0% (inactive)

Compound: Cc1cccc2[nH]c(-c3cccc(-c4cccc(CNCc5ccccc5)c4)c3)nc12
inhibition: -1% (inactive)

Compound: COc1ccc2nc(-c3ccccc3)cc(NN=Cc3ccc([N+](=O)[O-])cc3)c2c1
inhibition: 7% (inactive)

Compound: Brc1cc2c(cc1C=NNc1nc(Nc3ccccc3)nc(Nc3ccccc3)n1)OCO2
inhibition: 1% (inactive)

Compound: CN(C)c1ccc(CN2CCC(CNC(=O)c3cc(-c4ccccc4F)cs3)C2)cc1 (stereo not given)
inhibition: 2% (inactive)

* * *

Assay: inhibition of 3D7 malaria parasite growth – strain 3D7 (AID 2306);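 note: 0% = DMSO wells and 100% = chloroquine plus artemisinin control wells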
Settings: P. falciparum 3D7 erythrocytic growth, LDH absorbance, 72 h; at 2 µM; stronger effect = higher value
Endpoint Label: growth inhibition (%)

Compound: Cc1cc(C2CCN(CCCCNC(=O)c3ccc(NC(=O)c4ccc(Cl)cc4)cc3)CC2)c(C)cc1OCCN(C)C
Reported: 100

Compound: COc1ccccc1CCNc1nc(C)cc(N[C@@H](Cc2ccccc2)C(=O)NCc2cccs2)n1
Reported: 100

Compound: CC[C@H](C)CNC(=O)c1cccc(-c2cccc(CN3CCC(N4CCCC4)CC3)c2)n1
Reported: 101

Compound: O=C(Nc1ccccc1)N(Cc1cccc(-c2ccc(CNCc3ccc4c(c3)OCO4)cc2)c1)C1CCN(Cc2ccccc2)CC1
Reported: 102

Compound: O=C(CCc1ccccc1)N[C@H](Cc1c[nH]c2ccccc12)C(=O)N1CCC(NCc2ccc3c(c2)Cc2ccccc2-3)CC1
Reported: 92

Compound: Cc1ccccc1C(=O)NC(NC(=S)Nc1ccc([N+](=O)[O-])cc1)C(Cl)(Cl)Cl (stereo not drawn)
Reported: 101

Compound: O=C(Nc1n[nH]c2nc(-c3ccco3)c(Br)cc12)c1ccc(CN2CCCC2)cc1
Reported: 101

Compound: N#Cc1ccc2c(c1)CN(CCC1CCC(NC(=O)c3cc4cnccc4[nH]3)CC1)CC2 (stereo not drawn)
Reported: 97

Compound: CC1(C)N=C(N)N=C(N)N1OCCCCON1C(N)=NC(N)=NC1(C)C
Reported: 97

Compound: CC1(C)N=C(N)N=C(N)N1OCCSc1ccc(Cl)c(Cl)c1
Reported: 96

Compound: CC(=O)NC1=NC(C)(C)N(OCc2ccc(Cl)c(Cl)c2)C(NC(C)=O)=N1
Reported: 94

Compound: Nc1nc2ccc(S(=O)(=O)Nc3ccc(C(=O)N[C@@H](CCC(=O)O)C(=O)O)c(F)c3)cc2c(=O)[nH]1
Reported: 97

Compound: COc1cccc(Nc2nc(Nc3cccc(C#N)c3)cc(-c3ccncc3)n2)c1
Reported: 100

Compound: CCCCNC(=O)c1cc(CNC2CCCCC2)ccc1-c1cccc(CNCc2ccc(-c3ccccc3)cc2)c1
Reported: 100

Compound: O=C(Cc1cnc[nH]1)Nc1cccc(-c2cccc(-c3nc4ccc(F)cc4[nH]3)c2)c1
Reported: 101

Compound: COc1ccccc1-c1cc(C(=O)N2CCN(S(=O)(=O)c3ccc(C)cc3)CC2)[nH]n1
Reported: 88

Compound: Cc1cccc(-c2ccc3c(c2)CC(NCc2cccc(-n4ccnc4)c2)C3)c1 (stereo not drawn)
Reported: 101

Compound: CC(O)C1CCCCN1C(=O)c1ccc(-c2ccc(-c3nc4ccc(F)cc4[nH]3)cc2)cc1 (stereo not drawn)
Reported: 101

Origin of the recorded values: PubChem BioAssay
